Numbers sourced from patent US11279733B2.

Tested on: K. pneumoniae GN_102 PmxR
experimentalParameters: GN 102 PmxR
Description: Bacteria were either obtained from American Type Culture Collection (ATCC; Manassas, Va., USA) or independent academic clinical isolate collections, as listed in Table 18 below. Bacteria were cultured in Nutrient broth (NB; Bacto Laboratories, catalogue No. 234000) or Mueller Hinton broth (MHB; Bacto Laboratories, catalogue No. 211443) at 37° C. overnight with shaking (˜180 RPM). […]
Positions of bridges follow the written chain, without caps; N, C: chain ends. Non-standard residues stand in square brackets, D forms with d. Residues, ends and D or L forms follow the SMILES beside them. *: point of attachment. Decanoyl(3R-OH) = CCCCCCC[C@@H](O)CC(=O)*; dDab = NCC[C@@H](N)C(=O)O; Orn = NCCC[C@H](N)C(=O)O; Dab = NCC[C@H](N)C(=O)O
MIC, K. pneumoniae Cl Koprana 10065 0661:1, PmxR for assorted compounds
Supply the numeric figure in µg/mL, leaving out any unit text.

1. CCCCCCC[C@@H](O)CC(=O)N[C@H](CCN)C(=O)N[C@H]1CCNC(=O)[C@H](CC(C)C)NC(=O)[C@H](CCN)NC(=O)[C@H](CCN)NC(=O)[C@H](CC(C)C)NC(=O)[C@@H](Cc2ccccc2)NC(=O)[C@H](CCCN)NC1=O [compound 994] ({Decanoyl(3R-OH)}-[dDab][Dab][Orn][dF]L[Dab][Dab]L; lactam 2-C) : 4

Please give measured MIC, K. pneumoniae Cl Koprana 10065 0661:1, PmxR of the following entry: CCCCCCC[C@@H](O)CC(=O)N[C@H](CCN)C(=O)N[C@H]1CCNC(=O)[C@H](CC(C)C)NC(=O)[C@H](CCN)NC(=O)[C@H](C)NC(=O)[C@H](CC(C)C)NC(=O)[C@@H](Cc2ccccc2)NC(=O)[C@H](CCN)NC1=O [compound 4945] ({Decanoyl(3R-OH)}-[dDab][Dab][Dab][dF]LA[Dab]L; lactam 2-C)
4
